test_protocol: cytotoxicity in PAX8-dependent RMG-1 cells, dose response, cell-based, cherry-pick (AID 687029);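 further: cells exposed to compound for 96 hours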
condition_summary: RMG-1 viability, CellTiterGlo ATP luminescence, 96 h; series mostly up to 35 µM
Results with a measured potency or affinity are listed apart. Activity calls are given as the source filed them.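 How the source made its calls: active means signal drop whose fitted half-maximal concentration is at most twice the top valid dose, in every test run; inconclusive means mixed calls across runs, poor fit, or flat 30 to 70% inhibition; inactive means wrong direction, flat within 30%, or potency beyond limit.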
measured_parameter: activity change, negative = inhibition

Consider the reported activity change, negative = inhibition for these molecules:
> print(dat)
                                   molecule                      measured.parameter  measured.result
1  CCOc1ccccc1NC(=O)c1nc(S(=O)(=O)Cc2ccccc2)ncc1Cl  activity change, negative = inhibition         inactive
2   CC(C)OCCCNC(=O)c1cccc(NC(=O)c2ccccc2)c1  activity change, negative = inhibition         inactive
3  O=C(C[C@@H]1CC[C@H]2[C@@H](COC[C@H](O)CN2C(=O)Nc2ccc(Cl)c(Cl)c2)O1)NCc1ccc(Cl)cc1  activity change, negative = inhibition         inactive
4  C[C@H]1CCCCO[C@@H](CN(C)Cc2ccc(Cl)c(Cl)c2)[C@@H](C)CN([C@@H](C)CO)C(=O)c2cc(NC(=O)Nc3ccc(C(F)(F)F)cc3)ccc2O1  activity change, negative = inhibition         inactive
5  C[C@H]1CN([C@@H](C)CO)S(=O)(=O)c2ccc(C#Cc3ccc(F)cc3)cc2O[C@H]1CN(C)C(=O)NC1CCCCC1  activity change, negative = inhibition         inactive
6  Cc1ccc(S(=O)(=O)N(C)C[C@H]2Oc3c(NC(=O)Nc4ccc(F)cc4)cccc3C(=O)N([C@@H](C)CO)C[C@H]2C)cc1  activity change, negative = inhibition         inactive
7  Cc1cc(NC(=O)c2ccc([N+](=O)[O-])o2)ccc1NC(=O)c1ccco1  activity change, negative = inhibition         inactive
8  O=C(NC1CCCC1)N1CCCCN2[C@@H](CO)[C@@H](c3ccc(/C=C/c4ccccc4)cc3)[C@@H]2C1  activity change, negative = inhibition         inactive

Note: attention shifts to another entry.
Problem: Let me know recorded activity change, negative = inhibition for C[C@@H]1CN([C@H](C)CO)C(=O)c2cc(NC(=O)Nc3ccccc3)ccc2O[C@@H](C)CCCCO[C@H]1CN(C)Cc1ccc(Cl)c(Cl)c1 , thanks.
Result: inactive

----------
target_entity: NADPH oxidase 2 (Homo sapiens)
test_protocol: NOX2-dependent H2O2 signal modulators, primary screen, NOX inhibitor project, cell-based, HEK293-NOX2, PMA-stimulated, Amplex Red fluorescence (AID 1159)
condition_summary: 45 min, higher = more signal, called active from +8 up or from −8 down
Entry flag: satisfied if z-score reaches 0.8; not satisfied if it does not.

compound	class
C=CCC(OC(C)=O)[C@@H]1[C@@H](N(Cc2cc3ccccc3o2)C(=O)c2ccc(-c3ccccc3)cc2)c2cc(OCCCO)ccc2N1C(=O)c1ccc(-c2ccccc2)cc1 (some centres undefined)	satisfied
COc1ccc([Si](C)(C)[C@@H]2[C@@H](CCn3cc(CCO)nn3)O[C@]3(C(=O)N(Cc4ccc(N5C(=O)c6cccc7cccc5c67)cc4)c4ccccc43)[C@H]2C)cc1	satisfied
CC(C)C(CO)N1C(=O)[C@@H]2[C@H]3C(=O)OCC=C[C@H]3OC23C=CCN(Cc2ccccc2)C(=O)[C@@H]13 (some centres undefined)	satisfied

Problem: Is reported z-score greater than or equal to 0.8 here: C[N+](C)(C)CCCCNC(=O)[C@@H]1C[C@@H]2C(=O)NCC(=O)N2[C@@H]1c1cccc(OCCO)c1
Result: not satisfied

Problem: Is reported z-score greater than or equal to 0.8 here: C=C(COC)/C(=C/C[C@H](OC(C)=O)c1cccc(OCCO)c1)c1cc(C(=O)OC)ccc1OC
Result: not satisfied

Problem: Is reported z-score greater than or equal to 0.8 here: O=C(NO)[C@]1(Cc2ccccc2)N=C(c2ccc(OCCCO)cc2)O[C@@H]1c1ccccc1
Result: not satisfied

Problem: Is reported z-score greater than or equal to 0.8 here: C=C[C@H](OC)[C@@H](OC(=O)Nc1ccc(OC)cc1)c1ccc(OC)c(O)c1
Result: not satisfied

Problem: Is reported z-score greater than or equal to 0.8 here: C=CCNC(=O)[C@@H]1[C@H]2C(=O)O[C@H](c3ccccc3)[C@H](c3ccccc3)N2[C@H](c2ccc(O)cc2)[C@@]12C(=O)N(C(=O)OCCOC)c1ccc(C#Cc3ccc(OC)cc3)cc12
Result: satisfied
